testContext: in cyclohexane, 288.15 K
metric: solubility (mole fraction)

[[record]]
smilesstring = "Cc1c(C(=O)O)cc([N+](=O)[O-])cc1[N+](=O)[O-]"
val = "1.4e-05"


* * *

testContext: in ethanol, 298.15 K
metric: solubility (mole fraction)

[[record]]
smilesstring = "Cc1c(C(=O)O)cc([N+](=O)[O-])cc1[N+](=O)[O-]"
val = 0.0604


* * *

testContext: in n-hexanol, 308.15 K
metric: solubility (mole fraction)

[[record]]
smilesstring = "Cc1c(C(=O)O)cc([N+](=O)[O-])cc1[N+](=O)[O-]"
val = 0.0177


* * *

testContext: in isopropanol, 313.15 K
metric: solubility (mole fraction)

[[record]]
smilesstring = "Cc1c(C(=O)O)cc([N+](=O)[O-])cc1[N+](=O)[O-]"
val = 0.0232


* * *

testContext: in cyclohexane, 318.15 K
metric: solubility (mole fraction)

[[record]]
smilesstring = "Cc1c(C(=O)O)cc([N+](=O)[O-])cc1[N+](=O)[O-]"
metric = "solubility (mole fraction)"
val = "8.12e-05"


* * *

testContext: in n-hexanol, 318.15 K
metric: solubility (mole fraction)

[[record]]
smilesstring = "Cc1c(C(=O)O)cc([N+](=O)[O-])cc1[N+](=O)[O-]"
val = 0.0244


* * *

testContext: in water, 333.15 K
metric: solubility (mole fraction)

[[record]]
smilesstring = "Cc1c(C(=O)O)cc([N+](=O)[O-])cc1[N+](=O)[O-]"
metric = "solubility (mole fraction)"
val = 0.000218


* * *

testContext: in water, 323.15 K
metric: solubility (mole fraction)

[[record]]
smilesstring = "Cc1c(C(=O)O)cc([N+](=O)[O-])cc1[N+](=O)[O-]"
metric = "solubility (mole fraction)"
val = 0.000137


* * *

testContext: in cyclohexane, 293.15 K
metric: solubility (mole fraction)

[[record]]
smilesstring = "Cc1c(C(=O)O)cc([N+](=O)[O-])cc1[N+](=O)[O-]"
val = "1.96e-05"


* * *

testContext: in ethyl acetate, 288.15 K
metric: solubility (mole fraction)

[[record]]
smilesstring = "Cc1c(C(=O)O)cc([N+](=O)[O-])cc1[N+](=O)[O-]"
metric = "solubility (mole fraction)"
val = 0.0237


* * *

testContext: in n-hexanol, 298.15 K
metric: solubility (mole fraction)

[[record]]
smilesstring = "Cc1c(C(=O)O)cc([N+](=O)[O-])cc1[N+](=O)[O-]"
val = 0.0131


* * *

testContext: in water, 303.15 K
metric: solubility (mole fraction)

[[record]]
smilesstring = "Cc1c(C(=O)O)cc([N+](=O)[O-])cc1[N+](=O)[O-]"
metric = "solubility (mole fraction)"
val = "4.55e-05"


* * *

testContext: in n-propanol, 318.15 K
metric: solubility (mole fraction)

[[record]]
smilesstring = "Cc1c(C(=O)O)cc([N+](=O)[O-])cc1[N+](=O)[O-]"
val = 0.0326


* * *

testContext: in sec-butanol, 308.15 K
metric: solubility (mole fraction)

[[record]]
smilesstring = "Cc1c(C(=O)O)cc([N+](=O)[O-])cc1[N+](=O)[O-]"
val = 0.0219


* * *

testContext: in toluene, 303.15 K
metric: solubility (mole fraction)

[[record]]
smilesstring = "Cc1c(C(=O)O)cc([N+](=O)[O-])cc1[N+](=O)[O-]"
val = 0.0284


Taken from BigSolDB 2.1.
